IFN post average/average no. of times of administration reference
# Test system: CTL in PBMC of HRPC patients, HLA-A24 positive target cells presenting the administered peptide
# method: Measurement of CTL activity (IFN-γ) in PBMC of HRPC patients
# Type: in vivo, human
# condition_summary: prostate cancer
Ends that are not written are not given here.
Respond using a number only.

# count of solved cases: 4
sequence_text: LYCESVHNF [GP-108]
assay_value: 72
//
sequence_text: DYLRSVLEDF [GP-105]
assay_value: 229
//
sequence_text: HYTNASDGL [GP-103]
assay_value: 8
//
sequence_text: AYDFLYNYL [GP-113]
assay_value: 67

Problem: Could you please provide reported IFN post average/average no. of times of administration for DYSARWNEI [GP-112] ? Thanks!
Solution: 76

Problem: Return the recorded IFN post average/average no. of times of administration value; entry: TFDYLRSVL [GP-104]
Solution: 144

Problem: Respond only with IFN post average/average no. of times of administration recorded for DYVREHKDNI [GP-101]
Solution: 7

Problem: Supply measured IFN post average/average no. of times of administration of NYSVRYRPGL [GP-107] in your reply.
Solution: 27

Problem: Return IFN post average/average no. of times of administration (reported value) for this sequence: HYRKWIKDTI [GP-109]
Solution: 22

Problem: Report IFN post average/average no. of times of administration, nothing else, for this sequence: TYSVSFDSL [GP-110]
Solution: 365

Problem: Identify measured IFN post average/average no. of times of administration corresponding to LYAWEPSFL [GP-106]
Solution: 841

Problem: Output IFN post average/average no. of times of administration of VYDYNCHVDL [GP-114]
Solution: 547

Problem: State its IFN post average/average no. of times of administration for this sequence: RYLTQETNKV [GP-111]
Solution: 207

----------
# Tested on: CTL in PBMC of glioblastoma patients, HLA-A24 positive target cells presenting the administered peptide
# method: Measurement of CTL activity (IFN-γ) in PBMC of glioblastoma patients
# Format: in vivo, human
# condition_summary: brain tumor, patients given this peptide
Ends that are not written are not given here.
parameter: CTL (IFN) Post Average

sequence_text: DYSARWNEI [GP-112]
CTL (IFN) Post Average: 1,308 pg/mL
--
sequence_text: RYLTQETNKV [GP-111]
CTL (IFN) Post Average: 3,001 pg/mL
--
sequence_text: DYLRSVLEDF [GP-105]
CTL (IFN) Post Average: 2,706 pg/mL
--
sequence_text: TFDYLRSVL [GP-104]
CTL (IFN) Post Average: 2,986 pg/mL
--
sequence_text: VYDYNCHVDL [GP-114]
CTL (IFN) Post Average: 821 pg/mL
--
sequence_text: LYAWEPSFL [GP-106]
CTL (IFN) Post Average: 3,134 pg/mL
--
sequence_text: AYDFLYNYL [GP-113]
CTL (IFN) Post Average: 5,139 pg/mL

Now look at this one.
Problem: Report CTL (IFN) Post Average for NYSVRYRPGL [GP-107]
Solution: 151 pg/mL

The values you see were collected from patent US20170354726A1.
